target: UniProtKB Q96T88; assay: Binding affinity to UHRF1 TTD variant loop (unknown origin) assessed as dissociation constant by ITC analysis
Sequence (Q96T88 whole entry, looked up): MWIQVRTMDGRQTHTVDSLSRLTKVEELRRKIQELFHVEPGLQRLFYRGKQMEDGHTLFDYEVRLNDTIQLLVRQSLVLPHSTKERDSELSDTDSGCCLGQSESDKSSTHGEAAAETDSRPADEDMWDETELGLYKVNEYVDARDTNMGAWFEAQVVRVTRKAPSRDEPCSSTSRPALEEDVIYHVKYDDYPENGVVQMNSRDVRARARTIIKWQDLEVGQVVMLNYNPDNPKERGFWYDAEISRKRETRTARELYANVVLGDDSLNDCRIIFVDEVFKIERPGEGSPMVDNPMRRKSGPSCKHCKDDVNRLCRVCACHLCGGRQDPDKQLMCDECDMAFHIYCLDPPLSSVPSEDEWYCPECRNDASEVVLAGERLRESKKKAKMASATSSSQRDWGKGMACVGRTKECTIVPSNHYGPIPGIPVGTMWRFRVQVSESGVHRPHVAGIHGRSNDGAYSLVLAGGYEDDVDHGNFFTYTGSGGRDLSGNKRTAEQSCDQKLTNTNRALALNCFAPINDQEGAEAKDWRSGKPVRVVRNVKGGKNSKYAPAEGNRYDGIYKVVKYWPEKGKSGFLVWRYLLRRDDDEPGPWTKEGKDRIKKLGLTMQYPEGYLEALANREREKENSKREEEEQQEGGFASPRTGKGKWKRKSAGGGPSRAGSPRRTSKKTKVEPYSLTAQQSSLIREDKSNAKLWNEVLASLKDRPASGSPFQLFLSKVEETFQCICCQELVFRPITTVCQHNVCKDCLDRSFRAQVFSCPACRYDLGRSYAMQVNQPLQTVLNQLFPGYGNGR
measure.name: pKd
// field semantics: pKd = negative decimal log of concentration (mol/L)

Which pKd value is on record for Cc1cc(C)c(N)cn1 ?
4.68
